measured.on: SIRT6 enzyme (Homo sapiens)
experiment.notes: Measurement of deacetylation activity (SIRT6, AlphaLISA, H3K9(Ac) peptide)
Assay type: biochemical
condition.summary: SIRT6 25 ng/mL, H3K9(Ac) biotin peptide 2 nM, NAD 10 μM, room temperature 30 minutes, duplicate
endpoint.label: EC150 (the concentration of the compound showing a relative enzyme activity of 150%)
Record the result as number plus unit.

Provide EC150 (the concentration of the compound showing a relative enzyme activity of 150%), recorded with SIRT6 enzyme (Homo sapiens), of CNC(=O)Nc1nc2c(s1)C1CN(C(C)=O)CC(C2)N1c1nc2cc(F)ccc2o1 (stereo not shown) [Example 130]
3.7 μm

Provide EC150 (the concentration of the compound showing a relative enzyme activity of 150%), recorded with SIRT6 enzyme (Homo sapiens), of CNC(=O)Nc1nc2c(s1)C1CN(C(C)=O)CC(C2)N1c1ncc(-c2cccc(OC)n2)o1 (stereo not shown) [Example 129]
0.38 μm

Provide EC150 (the concentration of the compound showing a relative enzyme activity of 150%), recorded with SIRT6 enzyme (Homo sapiens), of CCOC(=O)N1CC2Cc3nc(NC(=O)NC)sc3C(C1)N2c1nc(C2(C(F)(F)F)CC2)no1 (stereo not shown) [Example 134]
3.5 μm

Provide EC150 (the concentration of the compound showing a relative enzyme activity of 150%), recorded with SIRT6 enzyme (Homo sapiens), of COc1cccc(-c2cc(N3[C@@H]4COC[C@H]3c3sc(NC(=O)N[C@@H]5CCOC5)nc3C4)no2)n1 [Example 163]
1.6 μm

Provide EC150 (the concentration of the compound showing a relative enzyme activity of 150%), recorded with SIRT6 enzyme (Homo sapiens), of CCOc1cccc(-c2cnc(N3[C@@H]4COC[C@H]3c3sc(NC(=O)N[C@H]5C[C@H](O)C5)nc3C4)o2)n1 [Example 80]
0.48 μm

Provide EC150 (the concentration of the compound showing a relative enzyme activity of 150%), recorded with SIRT6 enzyme (Homo sapiens), of CC(C)(CO)NC(=O)Nc1nc2c(s1)[C@@H]1COC[C@H](C2)N1c1ncc(-c2cccc(C(F)F)c2)o1 [Example 69]
0.59 μm

Provide EC150 (the concentration of the compound showing a relative enzyme activity of 150%), recorded with SIRT6 enzyme (Homo sapiens), of O=C(Nc1nc2c(s1)[C@@H]1COC[C@H](C2)N1c1nc(C2(C(F)(F)F)CC2)no1)N[C@@H]1CCOC1 [Example 37]
4.6 μm

###

measured.on: SIRT6 enzyme (Homo sapiens)
experiment.notes: Measurement of deacetylation activity (SIRT6, AlphaLISA, H3K9(Ac) peptide)
Type: biochemical
condition.summary: SIRT6 25 ng/mL, H3K9(Ac) biotin peptide 2 nM, NAD 10 μM, room temperature 30 minutes, duplicate
Please provide measured EC150 (the concentration of the compound showing a relative enzyme activity of 150%) for the entries that follow.
Report the value in μm with no unit label.

Give me measured EC150 (the concentration of the compound showing a relative enzyme activity of 150%), please, for this compound: CNC(=O)Nc1nc2c(s1)[C@@H]1COC[C@H](C2)N1c1nc(-c2ccc(F)cc2)co1
1.8

Give me measured EC150 (the concentration of the compound showing a relative enzyme activity of 150%), please, for this compound: CNC(=O)Nc1nc2c(s1)C1COCC(C2)N1c1nnc(-c2cccc(C(=O)C3CCC3)c2)o1 (stereo not shown)
2.6

Give me measured EC150 (the concentration of the compound showing a relative enzyme activity of 150%), please, for this compound: O=C(Nc1nc2c(s1)C1COCC(C2)N1c1nc(-c2ccc(F)cc2)no1)N[C@H]1C[C@H](CO)C1 (stereo partly shown)
0.62

Give me measured EC150 (the concentration of the compound showing a relative enzyme activity of 150%), please, for this compound: C[C@@H](O)CNC(=O)Nc1nc2c(s1)[C@@H]1COC[C@H](C2)N1c1ncc(-c2cccc(OC(F)F)c2)o1
0.55

Give me measured EC150 (the concentration of the compound showing a relative enzyme activity of 150%), please, for this compound: COc1nc(-c2cnc(N3[C@@H]4COC[C@H]3c3sc(NC(=O)N[C@H](C)CO)nc3C4)o2)ccc1C
1.8

Give me measured EC150 (the concentration of the compound showing a relative enzyme activity of 150%), please, for this compound: COCCCNC(=O)Nc1nc2c(s1)CN(c1nc(C3CCC(F)(F)CC3)no1)CC2
2.1

Give me measured EC150 (the concentration of the compound showing a relative enzyme activity of 150%), please, for this compound: CNC(=O)Nc1nc2c(s1)C1CN(C(C)=O)CC(C2)N1c1nc(-c2ccc(F)cc2)no1 (stereo not shown)
0.60

###

measured.on: SIRT6 enzyme (Homo sapiens, UniProt Q8N6T7)
Sequence (Q8N6T7 whole entry, species assumed): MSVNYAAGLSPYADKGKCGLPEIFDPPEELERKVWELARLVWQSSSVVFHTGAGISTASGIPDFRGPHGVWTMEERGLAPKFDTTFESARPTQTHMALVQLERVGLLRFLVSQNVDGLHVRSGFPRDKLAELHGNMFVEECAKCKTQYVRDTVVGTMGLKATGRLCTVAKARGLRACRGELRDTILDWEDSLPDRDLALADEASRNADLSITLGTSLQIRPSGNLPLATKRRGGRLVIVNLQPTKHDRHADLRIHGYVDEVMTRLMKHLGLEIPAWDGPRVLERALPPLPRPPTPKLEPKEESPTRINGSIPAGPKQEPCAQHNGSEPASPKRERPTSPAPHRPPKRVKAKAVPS
experiment.notes: Measurement of deacetylation activity (SIRT6, AlphaLISA, H3K9(Ac) peptide)
Format: biochemical
condition.summary: SIRT6 25 ng/mL, H3K9(Ac) biotin peptide 2 nM, NAD 10 μM, room temperature 30 minutes, duplicate
Procedure: The reaction was performed in duplicate using a white 384-well plate (3824, Corning or 6008350, PerkinElmer) at a final reaction liquid volume of 20.1 μL. As a control for calculating the enzyme activity, the enzyme-added (DMSO (+)) and enzyme-free (DMSO (−)) wells were set at n=8. […] The emission intensity was measured by EnVision (PerkinElmer). The relative enzyme activity (%) of the test substance was calculated by the following equation. […]
Please provide measured EC150 (the concentration of the compound showing a relative enzyme activity of 150%) for the entries that follow.
Report the value in μm with no unit label.

Provide EC150 (the concentration of the compound showing a relative enzyme activity of 150%), recorded with SIRT6 enzyme (Homo sapiens, UniProt Q8N6T7), of CCOc1ccc2oc(N3[C@@H]4COC[C@H]3c3sc(NC(=O)N[C@H](C)CO)nc3C4)nc2c1 [Example 52]
1.9

Provide EC150 (the concentration of the compound showing a relative enzyme activity of 150%), recorded with SIRT6 enzyme (Homo sapiens, UniProt Q8N6T7), of CNC(=O)Nc1nc2c(s1)C1CN(C(=O)OC)CC(C2)N1c1nc(-c2ccc(F)cn2)no1 (stereo not shown) [Example 142]
3.3

Provide EC150 (the concentration of the compound showing a relative enzyme activity of 150%), recorded with SIRT6 enzyme (Homo sapiens, UniProt Q8N6T7), of COc1cccc(-c2cnc(N3[C@@H]4COC[C@H]3c3sc(NC(=O)NCC(C)(C)O)nc3C4)o2)n1 [Example 184]
0.91

Provide EC150 (the concentration of the compound showing a relative enzyme activity of 150%), recorded with SIRT6 enzyme (Homo sapiens, UniProt Q8N6T7), of CNC(=O)Nc1nc2c(s1)[C@@H]1COC[C@H](C2)N1c1nnc(-c2cccc(OC(F)F)c2)o1 [Example 22]
1.3

Provide EC150 (the concentration of the compound showing a relative enzyme activity of 150%), recorded with SIRT6 enzyme (Homo sapiens, UniProt Q8N6T7), of C[C@H](CO)NC(=O)Nc1nc2c(s1)[C@@H]1COC[C@H](C2)N1c1cc(-c2ccc(F)cc2)on1 [Example 154]
0.82

Provide EC150 (the concentration of the compound showing a relative enzyme activity of 150%), recorded with SIRT6 enzyme (Homo sapiens, UniProt Q8N6T7), of CS(=O)(=O)N1CC2Cc3nc(NC(=O)NC4CCOCC4)sc3C(C1)N2c1nc(-c2ccc(F)cc2)no1 (stereo not shown) [Example 30]
0.18

Provide EC150 (the concentration of the compound showing a relative enzyme activity of 150%), recorded with SIRT6 enzyme (Homo sapiens, UniProt Q8N6T7), of CNC(=O)Nc1nc2c(s1)[C@H]1CN(C(=O)OC)C[C@@H](C2)N1c1nc(-c2ccc(F)cc2)no1 (relative stereo) [Example 24]
0.19

###

measured.on: SIRT6 enzyme (Homo sapiens, UniProt Q8N6T7)
experiment.notes: Measurement of deacetylation activity (SIRT6, AlphaLISA, H3K9(Ac) peptide)
Assay type: biochemical
condition.summary: SIRT6 25 ng/mL, H3K9(Ac) biotin peptide 2 nM, NAD 10 μM, room temperature 30 minutes, duplicate
Please provide measured EC150 (the concentration of the compound showing a relative enzyme activity of 150%) for the entries that follow.
Record the result as number plus unit.

Give me measured EC150 (the concentration of the compound showing a relative enzyme activity of 150%), please, for this compound: CNC(=O)Nc1nc2c(s1)C1COCC(C2)N1c1nc([C@H]2CC[C@@H](C(F)(F)F)CC2)no1 (stereo partly shown)
4.5 μm

Give me measured EC150 (the concentration of the compound showing a relative enzyme activity of 150%), please, for this compound: CNC(=O)Nc1nc2c(s1)C1CN(C(=O)OC)CC(C2)N1c1nc(C2CCC(F)(F)C2)no1 (stereo not shown)
1.4 μm

Give me measured EC150 (the concentration of the compound showing a relative enzyme activity of 150%), please, for this compound: CCOc1cccc(-c2nnc(N3[C@@H]4COC[C@H]3c3sc(NC(=O)NC)nc3C4)o2)c1
2.1 μm

Give me measured EC150 (the concentration of the compound showing a relative enzyme activity of 150%), please, for this compound: COc1cc2nc(N3[C@@H]4COC[C@H]3c3sc(NC(=O)NCC(C)(C)O)nc3C4)oc2cc1C
2.3 μm

Give me measured EC150 (the concentration of the compound showing a relative enzyme activity of 150%), please, for this compound: O=C(NCC1(O)CC1)Nc1nc2c(s1)[C@@H]1COC[C@H](C2)N1c1ncc(-c2cccc(OC(F)F)n2)o1
0.72 μm

Give me measured EC150 (the concentration of the compound showing a relative enzyme activity of 150%), please, for this compound: O=C(Nc1nc2c(s1)[C@@H]1COC[C@H](C2)N1c1nc(-c2ccc(F)cc2)no1)N[C@H]1C[C@@H](O)C1
0.51 μm

Give me measured EC150 (the concentration of the compound showing a relative enzyme activity of 150%), please, for this compound: O=C(Nc1nc2c(s1)[C@@H]1COC[C@H](C2)N1c1cc(-c2ccc(F)cc2)on1)NC1CCS(=O)(=O)CC1
0.41 μm
